Test: Macrolactamisation of unprotected diamino acid: Lys epsilon-NH2 to vinylogous amino acid CO2H, DMTMMT (BF4 salt, 1.5 equiv), DIPEA (4 equiv); free alpha-NH2 and OH present
Details: the molecule shown is the open-chain precursor; 12-membered ring; DMF; 1.0 mM; 25.0 °C; 36.0 h
OUTCOME MEASURE: ring closure, yield by NMR

{"columns": ["SMILES REPR", "MEASUREMENT"],
 "data": [
  ["C[C@@H](/C=C/C(=O)O)NC(=O)[C@@H](N)C[C@H](O)CCN", "59%"],
  ["C[C@@H](/C=C/C(=O)O)NC(=O)[C@@H](N)CC(=O)CCN", "51%"],
  ["CC(C)[C@@H](/C=C/C(=O)O)NC(=O)[C@@H](N)C[C@@H](O)CCN", "47%"]
]}

I would be grateful if you could share the reported ring closure, yield by NMR for C[C@@H](/C=C/C(=O)O)NC(=O)[C@@H](N)[C@@H](O)CCCN .
47%

---

Biological target: proteasome subunit β5 (Homo sapiens)
Construct: Following incubation of the compounds in cell culture for 6 h, cells were lysed; endogenous in cells; host or cells: RPMI 8226 (human multiple myeloma)
Test: In situ β5 proteasome activity assay (Suc-LLVY-AMC) in RPMI 8226 cells
Assay type: cell-based
Details: RPMI 8226 cells, 6 h, Suc-LLVY-AMC, n = 3, Figure 4D
OUTCOME MEASURE: pIC50
One number for each entry, as −log10 of the molar value.

I would be grateful if you could share the reported pIC50 for CC(C)CCCCCC=CC=CC(=O)NC(C(=O)NC1CC(O)CCNC(=O)C=CC(C)NC1=O)C(C)O (stereo not shown) [compound 1, cepafungin I] .
7.55
